- Test system: NCI-H196 complex spheroid growth, percent test/control
- method notes: Anticancer human tumor NCI-H196 cell line growth inhibition [AhR]
- study conditions: second compound 10 µM; first compound 3 µM; active compounds read low
Reported values of viability, T/C for individual entries
Give the value in % but do not write % after it.

CCN(c1cc(-c2ccc(CN3CCOCC3)cc2)cc(C(=O)NCc2c(C)cc(C)[nH]c2=O)c1C)C1CCOCC1 + Cc1ccccc1N=Nc1ccc(NC(=O)c2ccnn2C)c(C)c1 ... 102

Query: Kindly indicate its recorded viability, T/C. Item: O=C(C=Cn1cnc(-c2cc(C(F)(F)F)cc(C(F)(F)F)c2)n1)NNc1cnccn1 + Cc1ccccc1N=Nc1ccc(NC(=O)c2ccnn2C)c(C)c1
Response: 12.8

Query: Kindly indicate its recorded viability, T/C. Item: O=C(C=Cn1cnc(-c2cc(C(F)(F)F)cc(C(F)(F)F)c2)n1)NNc1cnccn1 + CC(CO)NC(=O)c1cc(-c2ccc(Cl)cc2)nn(-c2cnn(C)c2)c1=O
Response: 7.46

###

- Test system: NCI-H196 complex spheroid growth, percent test/control
- method notes: Anticancer human tumor NCI-H196 cell line growth inhibition [AhR];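 note: seven days of drug exposure starting three days after plating; 100% = DMSO vehicle control wells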
- study conditions: second compound 1 µM; first compound 0.1 µM; active compounds read low
observable: viability, T/C (%)
Give the value in % but do not write % after it.

O=C(c1cc(Cc2n[nH]c(=O)c3ccccc23)ccc1F)N1CCN(C(=O)C2CC2)CC1 + CC(CO)NC(=O)c1cc(-c2ccc(Cl)cc2)nn(-c2cnn(C)c2)c1=O ... 102
Nc1ccccc1NC(=O)c1ccc(CNC(=O)OCc2cccnc2)cc1 + Cc1cncc(-c2nc(NCCc3c[nH]c4ccccc34)c3ncn(C(C)C)c3n2)c1 ... 81.4

Query: Kindly indicate its recorded viability, T/C. Item: Nc1ncn(C2CC(O)C(CO)O2)c(=O)n1 (stereo unspecified) + CC(CO)NC(=O)c1cc(-c2ccc(Cl)cc2)nn(-c2cnn(C)c2)c1=O
Response: 108

Query: Kindly indicate its recorded viability, T/C. Item: CC1COCCN1c1cc(C2(S(C)(=N)=O)CC2)nc(-c2ccnc3[nH]ccc23)n1 (stereo unspecified) + Cc1ccccc1N=Nc1ccc(NC(=O)c2ccnn2C)c(C)c1
Response: 104

Query: Kindly indicate its recorded viability, T/C. Item: Cn1ncnc1C1c2n[nH]c(=O)c3cc(F)cc(c23)NC1c1ccc(F)cc1 (stereo unspecified) + CC(CO)NC(=O)c1cc(-c2ccc(Cl)cc2)nn(-c2cnn(C)c2)c1=O
Response: 109

Query: Kindly indicate its recorded viability, T/C. Item: Nc1ccccc1NC(=O)c1ccc(CNC(=O)OCc2cccnc2)cc1 + CC(CO)NC(=O)c1cc(-c2ccc(Cl)cc2)nn(-c2cnn(C)c2)c1=O
Response: 79.3

###

- Tested on: NCI-H196 complex spheroid growth, percent test/control
- method notes: Anticancer human tumor NCI-H196 cell line growth inhibition [AhR];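 note: seven days of drug exposure starting three days after plating; 100% = DMSO vehicle control wells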
- study conditions: second compound 3.16 µM; first compound 0.316 µM; active compounds read low
Reported values of viability, T/C for individual entries
Give the value in % but do not write % after it.

COc1ccc([C@@H](O)c2cc(-c3ncnc4cc(N5CCOCC5)ccc34)c(F)cc2Cl)nn1 + Cc1ccccc1N=Nc1ccc(NC(=O)c2ccnn2C)c(C)c1 ... 86.8
O=C(c1cc(Cc2n[nH]c(=O)c3ccccc23)ccc1F)N1CCN(C(=O)C2CC2)CC1 + CC(CO)NC(=O)c1cc(-c2ccc(Cl)cc2)nn(-c2cnn(C)c2)c1=O ... 107

Query: Specify the recorded viability, T/C for CC1COCCN1c1cc(-c2ccnn2C)c2ccnc(-c3ccn[nH]3)c2n1 (stereo not drawn) + CC(CO)NC(=O)c1cc(-c2ccc(Cl)cc2)nn(-c2cnn(C)c2)c1=O , system: NCI-H196 complex spheroid growth, percent test/control.
Response: 80

###

Reported values of viability, T/C for individual entries
- System: NCI-H196 complex spheroid growth, percent test/control
- method notes: Anticancer human tumor NCI-H196 cell line growth inhibition [AhR];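 note: seven days of drug exposure starting three days after plating; 100% = DMSO vehicle control wells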
- study conditions: second compound 3.16 µM; first compound 0.01 µM; active compounds read low
- Text: Multicellular complex tumor spheroid response to aryl hydrocarbon receptor antagonists in combination with a variety of drugs and investigational agents in selected tumor cell lines […] Compounds. […] If the clinical Cmax for an agent had not been determined, the highest concentration tested was 10 microM (Table 1). […]
Give the value in % but do not write % after it.

Cn1ncnc1C1c2n[nH]c(=O)c3cc(F)cc(c23)NC1c1ccc(F)cc1 (configuration not stated) + Cc1ccccc1N=Nc1ccc(NC(=O)c2ccnn2C)c(C)c1 ... 98.2
Nc1ncn(C2CC(O)C(CO)O2)c(=O)n1 (configuration not stated) + CC(CO)NC(=O)c1cc(-c2ccc(Cl)cc2)nn(-c2cnn(C)c2)c1=O ... 130
CC1COCCN1c1cc(-c2ccnn2C)c2ccnc(-c3ccn[nH]3)c2n1 (configuration not stated) + Cc1ccccc1N=Nc1ccc(NC(=O)c2ccnn2C)c(C)c1 ... 94.2

Query: Kindly indicate its recorded viability, T/C. Item: CC[C@@]1(O)C(=O)OCc2c1cc1n(c2=O)Cc2cc3c(CN(C)C)c(O)ccc3nc2-1 + Cc1ccccc1N=Nc1ccc(NC(=O)c2ccnn2C)c(C)c1
Response: 86.5

Query: Kindly indicate its recorded viability, T/C. Item: Nc1ncn(C2CC(O)C(CO)O2)c(=O)n1 (configuration not stated) + Cc1ccccc1N=Nc1ccc(NC(=O)c2ccnn2C)c(C)c1
Response: 86.9

Query: Kindly indicate its recorded viability, T/C. Item: CC[C@@]1(O)C(=O)OCc2c1cc1n(c2=O)Cc2cc3c(CN(C)C)c(O)ccc3nc2-1 + Cc1cncc(-c2nc(NCCc3c[nH]c4ccccc34)c3ncn(C(C)C)c3n2)c1
Response: 88.8

Query: Kindly indicate its recorded viability, T/C. Item: CC1COCCN1c1cc(-c2ccnn2C)c2ccnc(-c3ccn[nH]3)c2n1 (configuration not stated) + CC(CO)NC(=O)c1cc(-c2ccc(Cl)cc2)nn(-c2cnn(C)c2)c1=O
Response: 102

Query: Kindly indicate its recorded viability, T/C. Item: Nc1ncn(C2CC(O)C(CO)O2)c(=O)n1 (configuration not stated) + Cc1cncc(-c2nc(NCCc3c[nH]c4ccccc34)c3ncn(C(C)C)c3n2)c1
Response: 112

Query: Kindly indicate its recorded viability, T/C. Item: CC[C@@]1(O)C(=O)OCc2c1cc1n(c2=O)Cc2cc3c(CN(C)C)c(O)ccc3nc2-1 + CC(CO)NC(=O)c1cc(-c2ccc(Cl)cc2)nn(-c2cnn(C)c2)c1=O
Response: 96.8

Query: Kindly indicate its recorded viability, T/C. Item: Cn1ncnc1C1c2n[nH]c(=O)c3cc(F)cc(c23)NC1c1ccc(F)cc1 (configuration not stated) + CC(CO)NC(=O)c1cc(-c2ccc(Cl)cc2)nn(-c2cnn(C)c2)c1=O
Response: 104

Query: Kindly indicate its recorded viability, T/C. Item: Cn1ncnc1C1c2n[nH]c(=O)c3cc(F)cc(c23)NC1c1ccc(F)cc1 (configuration not stated) + Cc1cncc(-c2nc(NCCc3c[nH]c4ccccc34)c3ncn(C(C)C)c3n2)c1
Response: 96.1

Query: Kindly indicate its recorded viability, T/C. Item: CC1COCCN1c1cc(-c2ccnn2C)c2ccnc(-c3ccn[nH]3)c2n1 (configuration not stated) + Cc1cncc(-c2nc(NCCc3c[nH]c4ccccc34)c3ncn(C(C)C)c3n2)c1
Response: 123

###

- System: NCI-H196 complex spheroid growth, percent test/control
- method notes: Anticancer human tumor NCI-H196 cell line growth inhibition [AhR];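 note: seven days of drug exposure starting three days after plating; 100% = DMSO vehicle control wells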
- study conditions: second compound 0.1 µM; first compound 0.001 µM; active compounds read low
Reported values of viability, T/C for individual entries
Give the value in % but do not write % after it.

Below: 3 molecules and their reported viability, T/C.
CC[C@@]1(O)C(=O)OCc2c1cc1n(c2=O)Cc2cc3c(CN(C)C)c(O)ccc3nc2-1 + CC(CO)NC(=O)c1cc(-c2ccc(Cl)cc2)nn(-c2cnn(C)c2)c1=O ... 101
Cn1ncnc1C1c2n[nH]c(=O)c3cc(F)cc(c23)NC1c1ccc(F)cc1 (stereo unspecified) + Cc1ccccc1N=Nc1ccc(NC(=O)c2ccnn2C)c(C)c1 ... 112
CC[C@@]1(O)C(=O)OCc2c1cc1n(c2=O)Cc2cc3c(CN(C)C)c(O)ccc3nc2-1 + Cc1ccccc1N=Nc1ccc(NC(=O)c2ccnn2C)c(C)c1 ... 111

Query: Kindly indicate its recorded viability, T/C. Item: Cn1ncnc1C1c2n[nH]c(=O)c3cc(F)cc(c23)NC1c1ccc(F)cc1 (stereo unspecified) + CC(CO)NC(=O)c1cc(-c2ccc(Cl)cc2)nn(-c2cnn(C)c2)c1=O
Response: 107

Query: Kindly indicate its recorded viability, T/C. Item: CC[C@@]1(O)C(=O)OCc2c1cc1n(c2=O)Cc2cc3c(CN(C)C)c(O)ccc3nc2-1 + Cc1cncc(-c2nc(NCCc3c[nH]c4ccccc34)c3ncn(C(C)C)c3n2)c1
Response: 95.5

Query: Kindly indicate its recorded viability, T/C. Item: Cn1ncnc1C1c2n[nH]c(=O)c3cc(F)cc(c23)NC1c1ccc(F)cc1 (stereo unspecified) + Cc1cncc(-c2nc(NCCc3c[nH]c4ccccc34)c3ncn(C(C)C)c3n2)c1
Response: 101
